// provenance: patent US5886016A

- target: Human COX-2 (Homo sapiens, UniProt P35354)
- Construct: A 2.0 kb fragment containing the coding region of either human or murine COX-1 or human or murine COX-2; CHAPS-solubilized membranes
- Sequence (P35354 18-604): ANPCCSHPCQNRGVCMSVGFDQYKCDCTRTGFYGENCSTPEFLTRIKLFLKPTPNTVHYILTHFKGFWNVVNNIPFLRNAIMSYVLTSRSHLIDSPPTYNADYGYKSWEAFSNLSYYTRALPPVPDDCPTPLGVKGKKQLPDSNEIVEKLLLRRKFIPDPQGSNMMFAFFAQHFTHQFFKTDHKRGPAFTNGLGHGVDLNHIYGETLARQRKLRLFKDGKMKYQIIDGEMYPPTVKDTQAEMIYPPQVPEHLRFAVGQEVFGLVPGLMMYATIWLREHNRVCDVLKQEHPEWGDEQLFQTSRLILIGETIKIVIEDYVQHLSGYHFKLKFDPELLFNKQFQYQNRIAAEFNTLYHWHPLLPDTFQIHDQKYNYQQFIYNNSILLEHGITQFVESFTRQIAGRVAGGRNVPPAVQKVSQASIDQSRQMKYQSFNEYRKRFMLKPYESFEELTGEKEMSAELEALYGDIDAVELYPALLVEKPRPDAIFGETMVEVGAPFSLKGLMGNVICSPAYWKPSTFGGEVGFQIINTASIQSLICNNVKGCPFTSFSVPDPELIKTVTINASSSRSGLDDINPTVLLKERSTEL
- run_description: Evaluation of COX-2 activity in vitro (recombinant enzyme, PGE2 ELISA)
- test_context: 10 μM arachidonic acid; 10-20 minutes pre-incubation; pH 8.0
# if measured IC50 < 2000 nM: 1  # else: 0

Qu. Threshold test, IC50 < 2000 nM: N#Cc1nn(-c2ccc(S(N)(=O)=O)cc2)c2c1SCc1cc(F)ccc1-2 [Example 35]
Ans. 1

Qu. Quick check: does CN(C)C=NS(=O)(=O)c1ccc(-n2nc(C#N)c3c2-c2ccc(F)cc2CS3)cc1 [Example 34] have IC50 under 2000 nM?
Ans. 0

Qu. Is 2000 nM strictly greater than the compound's reported IC50? compound: NS(=O)(=O)c1ccc(-n2nc(CO)c3c2-c2ccc(F)cc2CS3)cc1 [Example 36]
Ans. 1

Qu. Strictly below 2000 nM in IC50? Cc1ccc2c(c1)COc1c(C(F)(F)F)nn(-c3ccc(S(N)(=O)=O)cc3)c1-2 [Example 28]
Ans. 1

Qu. Threshold test, IC50 < 2000 nM: COc1c(F)cc2c(c1F)CSc1c(C(F)(F)F)nn(-c3ccc(S(N)(=O)=O)cc3)c1-2 [Example 29]
Ans. 1

Qu. API: query returns whether the compound falls strictly under 2000 nM in IC50. Query: COc1ccc2c(c1)COc1c(C(F)(F)F)nn(-c3ccc(S(N)(=O)=O)cc3)c1-2 [Example 26]
Ans. 1

Qu. Is it true that IC50 reported for NS(=O)(=O)c1ccc(-n2nc(C(F)F)c3c2-c2ccc(Cl)cc2CS3)cc1 [Example 25] is less than 2000 nM?
Ans. 1

Qu. Report whether reported IC50 is lower than 2000 nM (strictly) for CS(=O)(=O)c1ccc(-n2nc(C(F)(F)F)c3c2-c2ccc(F)cc2CS3)cc1 [Example 32]
Ans. 1

Qu. Strictly below 2000 nM in IC50? COc1cc2c(c(OC)c1OC)-c1c(c(C(F)(F)F)nn1-c1ccc(S(N)(=O)=O)cc1)OC2 [Example 27]
Ans. 0

Qu. Is the reported IC50 for Cc1ccc2c(c1)COc1c(C(F)F)nn(-c3ccc(S(N)(=O)=O)cc3)c1-2 [Example 30] strictly below 2000 nM?
Ans. 1

Qu. # strict comparison: is reported IC50 < 2000 nM? input = Cc1ccc2c(c1)CSc1c(C(F)F)nn(-c3ccc(S(N)(=O)=O)cc3)c1-2 [Example 24]
Ans. 1

Qu. Please let me know if NS(=O)(=O)c1ccc(-n2nc(C(F)F)c3c2-c2ccc(F)cc2CS3)cc1 [Example 31] shows IC50 below 2000 nM.
Ans. 1
